Catalogue of AC50 readings, one per entry.
Biological target: Alpha-1A adrenergic receptor (Homo sapiens, UniProt P35348); further: assay procedure not described here
Sequence (P35348 whole entry): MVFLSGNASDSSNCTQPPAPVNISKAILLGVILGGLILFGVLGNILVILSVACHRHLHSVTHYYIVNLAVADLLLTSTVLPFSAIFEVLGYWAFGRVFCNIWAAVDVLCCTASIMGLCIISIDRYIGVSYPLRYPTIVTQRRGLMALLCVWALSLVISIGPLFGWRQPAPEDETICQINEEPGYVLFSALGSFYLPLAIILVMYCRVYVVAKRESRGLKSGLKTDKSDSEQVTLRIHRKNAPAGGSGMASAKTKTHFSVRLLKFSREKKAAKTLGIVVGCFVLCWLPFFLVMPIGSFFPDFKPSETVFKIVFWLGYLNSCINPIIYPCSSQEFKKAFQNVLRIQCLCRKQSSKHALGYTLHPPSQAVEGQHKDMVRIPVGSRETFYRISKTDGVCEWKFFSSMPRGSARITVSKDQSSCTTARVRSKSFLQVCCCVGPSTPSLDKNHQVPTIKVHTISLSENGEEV
Assay type: functional, cell-based

>  <COMPOUND>
CCC[C@H](N[C@@H](C)C(=O)N1[C@H](C(=O)O)C[C@@H]2CCCC[C@@H]21)C(=O)OCC

>  <STUDY_TARGET>
Alpha-1A adrenergic receptor (Homo sapiens, UniProt P35348); further: assay procedure not described here

>  <AC50>
> 30 µM

$$$$
>  <COMPOUND>
O=C(NNCS(=O)(=O)O)c1ccncc1 [METHANIAZIDE]

>  <STUDY_TARGET>
Alpha-1A adrenergic receptor (Homo sapiens, UniProt P35348); further: assay procedure not described here

>  <AC50>
> 30 µM

$$$$
>  <COMPOUND>
CC(COc1ccccc1)NC(C)C(O)c1ccc(O)cc1 (configuration not stated)

>  <STUDY_TARGET>
Alpha-1A adrenergic receptor (Homo sapiens, UniProt P35348); further: assay procedure not described here

>  <AC50>
> 30 µM

$$$$

Record request: AC50 value, item Cc1ncc2c(c1O)COC2c1ccc(Cl)cc1 (configuration not stated)
> 30 µM

What about CC(=O)OCC(=O)[C@@]1(O)CC[C@H]2[C@@H]3CCC4=CC(=O)CC[C@]4(C)[C@H]3[C@@H](O)C[C@@]21C [HYDROCORTISONE ACETATE] ?
> 30 µM

What about COc1ccc2[nH]c([S+]([O-])Cc3ncc(C)c(OC)c3C)nc2c1 (configuration not stated) ?
> 30 µM

What about Cc1ccc(S(=O)(=O)NC(=O)NC2CCCCC2)cc1 [GLYCYCLAMIDE] ?
> 30 µM

What about C[C@H](CCC(=O)O)[C@H]1CC[C@H]2[C@@H]3[C@H](O)C[C@@H]4C[C@H](O)CC[C@]4(C)[C@H]3C[C@H](O)[C@]12C ?
> 30 µM

What about C=C1CC[C@H](O)C/C1=C/C=C1\CCC[C@]2(C)[C@@H]([C@H](C)CCCC(C)C)CC[C@@H]12 ?
> 30 µM

What about CC(=O)OC[C@H]1O[C@@H](n2ncc(=O)[nH]c2=O)[C@H](OC(C)=O)[C@@H]1OC(C)=O ?
> 30 µM

What about CCCc1nc2c(C)cc(-c3nc4ccccc4n3C)cc2n1Cc1ccc(-c2ccccc2C(=O)O)cc1 ?
9.55 µM

What about O=C(O)[C@@H]1C[C@@H](O)CN1 ?
> 30 µM

What about Cc1ccc(C(=O)c2ccc(CC(=O)O)n2C)cc1 ?
> 30 µM

What about CC(=O)NCCCCCC(=O)O ?
18.9 µM

What about COc1ccccc1OC1(C)OC(=O)c2ccccc2O1 (configuration not stated) ?
> 30 µM

What about NC(=O)[C@@H]1CC[C@@H]2CN1C(=O)N2OS(=O)(=O)O ?
> 30 µM

What about CCC1=C[C@@H]2CN(C1)Cc1c([nH]c3ccccc13)[C@@](C(=O)OC)(c1cc3c(cc1OC)N(C)[C@H]1[C@@](O)(C(=O)OC)[C@H](OC(C)=O)[C@]4(CC)C=CCN5CC[C@]31[C@@H]54)C2 ?
> 30 µM

----------
Assay read-out AC50; system under study: Adenosine receptor A2a (Homo sapiens, UniProt P29274). Further: assay procedure not described here.
Sequence (P29274 whole entry): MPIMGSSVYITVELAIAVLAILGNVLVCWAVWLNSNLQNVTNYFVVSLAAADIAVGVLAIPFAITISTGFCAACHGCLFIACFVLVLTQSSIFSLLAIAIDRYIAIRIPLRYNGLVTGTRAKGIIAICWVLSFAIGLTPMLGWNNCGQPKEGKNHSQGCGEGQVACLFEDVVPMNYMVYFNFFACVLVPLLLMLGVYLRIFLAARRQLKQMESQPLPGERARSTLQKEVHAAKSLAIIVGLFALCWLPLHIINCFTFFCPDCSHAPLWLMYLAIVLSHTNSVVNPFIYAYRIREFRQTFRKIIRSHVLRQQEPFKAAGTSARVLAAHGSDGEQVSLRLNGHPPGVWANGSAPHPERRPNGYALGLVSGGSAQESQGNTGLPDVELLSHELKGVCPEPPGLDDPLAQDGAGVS

Here are 5 molecules together with their reported answers.
>  <MOLECULE>
CC=CC1=C(C(=O)O)N2C(=O)[C@@H](NC(=O)[C@H](N)c3ccc(O)cc3)[C@H]2SC1

>  <AC50>
> 30 µM

$$$$
>  <MOLECULE>
CC[C@@H](CO)NC(=O)[C@@H]1C=C2c3cccc4c3c(cn4C)C[C@H]2N(C)C1 [METHYSERGIDE]

>  <AC50>
> 30 µM

$$$$
>  <MOLECULE>
CN(C)Cc1nnc2n1-c1ccc(Cl)cc1C(c1ccccc1)=NC2

>  <AC50>
> 10 µM

$$$$
>  <MOLECULE>
O=C(O)c1cccnc1Nc1cccc(C(F)(F)F)c1

>  <AC50>
> 10 µM

$$$$
>  <MOLECULE>
CCOc1nc2cccc(C(=O)O)c2n1Cc1ccc(-c2ccccc2-c2nnn[nH]2)cc1

>  <AC50>
> 30 µM

$$$$

Record request: AC50 value, item COC(=O)C1=C(C)NC(C)=C(C(=O)OCCN2CCN(C(c3ccccc3)c3ccccc3)CC2)C1c1cccc([N+](=O)[O-])c1 (stereo not drawn)
> 30 µM

What about Cc1nc(Nc2ncc(C(=O)Nc3c(C)cccc3Cl)s2)cc(N2CCN(CCO)CC2)n1 ?
> 30 µM

What about CCCN(CCC)S(=O)(=O)c1ccc(C(=O)O)cc1 ?
> 10 µM

----------
Assay read-out AC50; system under study: UniProtKB P29274.

Record request: AC50 value, item CCc1nc(N)nc(N)c1-c1ccc(Cl)cc1
> 10 µM

What about COc1ccc([C@@H]2CC(=O)c3c(O)cc(O)cc3O2)cc1O ?
> 10 µM

What about CC(C)[C@@H](C)/C=C/[C@@H](C)[C@H]1CC[C@H]2/C(=C/C=C3\C[C@@H](O)CC[C@@H]3C)CCC[C@]12C [DIHYDROTACHYSTEROL] ?
> 10 µM

What about C=C1c2cccc(O)c2C(=O)C2=C(O)[C@]3(O)C(=O)C(C(N)=O)=C(O)[C@@H](N(C)C)[C@@H]3[C@@H](O)[C@H]12 ?
> 30 µM

----------
Target: Estrogen receptor (Homo sapiens); further: assay procedure not described here
Sequence (P03372 whole entry): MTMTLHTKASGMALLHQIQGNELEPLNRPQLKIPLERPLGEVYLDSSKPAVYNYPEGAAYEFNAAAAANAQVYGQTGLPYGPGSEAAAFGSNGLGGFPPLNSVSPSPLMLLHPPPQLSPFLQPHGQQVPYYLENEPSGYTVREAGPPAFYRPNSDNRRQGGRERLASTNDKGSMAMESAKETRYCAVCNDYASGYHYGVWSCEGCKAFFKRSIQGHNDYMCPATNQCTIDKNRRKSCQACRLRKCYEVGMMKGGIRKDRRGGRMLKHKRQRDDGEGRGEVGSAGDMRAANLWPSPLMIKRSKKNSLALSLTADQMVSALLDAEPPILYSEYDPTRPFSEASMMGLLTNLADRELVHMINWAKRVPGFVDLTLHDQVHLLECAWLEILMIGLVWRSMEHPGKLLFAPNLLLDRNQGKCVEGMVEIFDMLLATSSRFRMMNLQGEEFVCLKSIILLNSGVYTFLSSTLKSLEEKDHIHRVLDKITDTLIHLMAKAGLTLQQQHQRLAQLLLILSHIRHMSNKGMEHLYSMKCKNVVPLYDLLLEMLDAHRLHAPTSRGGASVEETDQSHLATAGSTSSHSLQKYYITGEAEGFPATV
Format: functional
RECORDED_ENDPOINT: AC50

>  <COMPOUND>
CCC(=O)O[C@]1(C(=O)CCl)[C@@H](C)C[C@H]2[C@@H]3CCC4=CC(=O)C=C[C@]4(C)[C@@]3(F)[C@@H](O)C[C@@]21C [CLOBETASOL PROPIONATE]

>  <RECORDED_ENDPOINT>
AC50

>  <READOUT_VALUE>
> 30 µM

$$$$

Provide value of AC50 for this record tested with Estrogen receptor (Homo sapiens): CCOC(=O)[C@@H](N)Cc1ccc(-c2cc(O[C@H](c3ccc(Cl)cc3-n3ccc(C)n3)C(F)(F)F)nc(N)n2)cc1 [TELOTRISTAT ETHYL]
> 30 µM

What about CC(C)c1cccc(C(C)C)c1O [PROPOFOL] ?
> 30 µM

What about CCOc1nc2cccc(C(=O)O)c2n1Cc1ccc(-c2ccccc2-c2nnn[nH]2)cc1 ?
> 30 µM

----------
Target: Prostaglandin G/H synthase 1 (Homo sapiens, UniProt P23219); further: assay procedure not described here
Sequence (P23219 whole entry): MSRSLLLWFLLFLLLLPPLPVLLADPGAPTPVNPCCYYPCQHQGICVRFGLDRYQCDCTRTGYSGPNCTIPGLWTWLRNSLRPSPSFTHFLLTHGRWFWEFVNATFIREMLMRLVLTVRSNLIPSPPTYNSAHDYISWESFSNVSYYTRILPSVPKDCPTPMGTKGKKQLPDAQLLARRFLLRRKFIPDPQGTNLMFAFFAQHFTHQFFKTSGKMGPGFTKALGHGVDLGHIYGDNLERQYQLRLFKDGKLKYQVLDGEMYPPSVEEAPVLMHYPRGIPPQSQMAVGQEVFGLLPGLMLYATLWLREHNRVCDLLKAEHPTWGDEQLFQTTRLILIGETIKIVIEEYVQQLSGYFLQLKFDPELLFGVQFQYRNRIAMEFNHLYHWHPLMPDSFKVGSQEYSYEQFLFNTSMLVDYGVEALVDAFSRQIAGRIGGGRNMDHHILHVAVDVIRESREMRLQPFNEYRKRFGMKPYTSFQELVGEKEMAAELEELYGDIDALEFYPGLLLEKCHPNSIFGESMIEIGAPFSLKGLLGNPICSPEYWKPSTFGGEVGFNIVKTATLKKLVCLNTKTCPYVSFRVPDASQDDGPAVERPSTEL
Format: functional
Catalogue of AC50 readings, one per entry.

Here are 6 compounds together with their reported answers.
>  <COMPOUND>
CCNC(=O)/C=C(C)/C=C/C=C(C)/C=C/c1c(C)cc(OC)c(C)c1C [MOTRETINIDE]

>  <STUDY_TARGET>
Prostaglandin G/H synthase 1 (Homo sapiens, UniProt P23219); further: assay procedure not described here

>  <AC50>
6.95 µM

$$$$
>  <COMPOUND>
NNCCc1ccccc1

>  <STUDY_TARGET>
Prostaglandin G/H synthase 1 (Homo sapiens, UniProt P23219); further: assay procedure not described here

>  <AC50>
0.891 µM

$$$$
>  <COMPOUND>
COc1cc(C)c2c(Oc3cccc(C(F)(F)F)c3)c(OC)cc(NC(C)CCCN)c2n1 (stereo not drawn)

>  <STUDY_TARGET>
Prostaglandin G/H synthase 1 (Homo sapiens, UniProt P23219); further: assay procedure not described here

>  <AC50>
9.38 µM

$$$$
>  <COMPOUND>
Cc1oc(=O)oc1COC(=O)[C@@H]1N2C(=O)[C@@H](NC(=O)[C@H](N)c3ccccc3)[C@H]2SC1(C)C

>  <STUDY_TARGET>
Prostaglandin G/H synthase 1 (Homo sapiens, UniProt P23219); further: assay procedure not described here

>  <AC50>
> 30 µM

$$$$
>  <COMPOUND>
CC(O)(P(=O)(O)O)P(=O)(O)O

>  <STUDY_TARGET>
Prostaglandin G/H synthase 1 (Homo sapiens, UniProt P23219); further: assay procedure not described here

>  <AC50>
> 30 µM

$$$$
>  <COMPOUND>
COc1ccc(OC)c(C(O)C(C)N)c1 (stereo not drawn)

>  <STUDY_TARGET>
Prostaglandin G/H synthase 1 (Homo sapiens, UniProt P23219); further: assay procedure not described here

>  <AC50>
> 30 µM

$$$$

Record request: AC50 value, item CC(C)(C)NC(=O)N[C@H](C(=O)N1C[C@H]2[C@@H]([C@H]1C(=O)NC(CC1CCC1)C(=O)C(N)=O)C2(C)C)C(C)(C)C (stereo partly drawn)
> 30 µM

What about CCCCC1C(=O)N(c2ccccc2)N(c2ccc(O)cc2)C1=O (stereo not drawn) [OXYPHENBUTAZONE ANHYDROUS] ?
7.8 µM

What about CC[C@@H]1C[C@]1(NC(=O)[C@@H]1C[C@@H]2CN1C(=O)[C@H](C(C)(C)C)NC(=O)OCC(C)(C)CCCCc1cccc3c1CN(C3)C(=O)O2)C(=O)NS(=O)(=O)C1CC1 ?
26.8 µM

What about CCN(CC)CCCC(C)Nc1c2ccc(Cl)cc2nc2ccc(OC)cc12 (stereo not drawn) ?
> 30 µM

What about Cc1ccc(C)c(OCCCC(C)(C)C(=O)O)c1 ?
> 30 µM

What about C[N+](C)(C)CCOP(=O)(O)OP(=O)([O-])OC[C@H]1O[C@@H](n2ccc(N)nc2=O)[C@H](O)[C@@H]1O ?
> 30 µM

What about Cc1cc(=O)[nH]c(=S)[nH]1 ?
13.1 µM

What about CCCc1nc2c(C)cc(-c3nc4ccccc4n3C)cc2n1Cc1ccc(-c2ccccc2C(=O)O)cc1 ?
> 30 µM

What about COc1c2occc2c(OC)c2c(=O)cc(C)oc12 ?
> 30 µM

What about CC(=O)O[C@]1(C(C)=O)CC[C@H]2[C@@H]3C=C(Cl)C4=CC(=O)[C@@H]5C[C@@H]5[C@]4(C)[C@H]3CC[C@@]21C [CYPROTERONE ACETATE] ?
> 30 µM

What about C#C[C@]1(O)C=C[C@H]2[C@@H]3CCC4=CC(=O)CC[C@@H]4[C@H]3CC[C@@]21CC ?
> 30 µM

Entry source: ChEMBL document CHEMBL5291721
